# System: CLZ3 (HCA2 human fibroblast dual HR-NHEJ reporter)
# assay comment: NHEJ repair efficiency (GFP+ cells) relative to control (log10 fold); higher = more non-homologous end joining
# experimental setup: 5 µM; doxycycline 0.5 ug/mL
Entries and their measured NHEJ repair efficiency (log10) follow.
Respond using a number only.

{"columns": ["molecule", "NHEJ repair efficiency (log10)"],
 "data": [
  ["CCCC[N+]1(C)[C@@H]2C[C@@H](OC(=O)[C@H](CO)c3ccccc3)C[C@H]1[C@@H]1O[C@@H]12 (stereo partly specified) [Scopolamine Butylbromide]", -0.172],
  ["COc1cc(C(=O)OC2C3C=COC(OC4OC(CO)C(O)C(O)C4O)C3C3(CO)OC23)ccc1O (stereo unspecified) [Amphicoside Ii]", 0.0243],
  ["O=c1cccc2n1CC1CC2CN2CCCCC12 (stereo unspecified)", 0.0072],
  ["CCN1C[C@]2(COC)[C@H](O)C[C@H](OC)[C@]34C1[C@H]([C@H](OC)[C@H]23)[C@@]1(OC(C)=O)C[C@H](OC)[C@@]2(O)C[C@@H]4[C@@H]1[C@H]2OC(=O)c1ccc(OC)cc1", -0.0536],
  ["O=C1C=CC[C@@H]2[C@H]3CCCN4CCC[C@@H](CN12)[C@@H]34", -0.0254]
]}

Would you kindly look at the next entry?
Query: Specify reported NHEJ repair efficiency (log10) for the molecule shown: COc1cc([C@H]2OC[C@H]3[C@H]2CO[C@@H]3c2cc(OC)c(O[C@@H]3O[C@H](CO)[C@@H](O)[C@H](O)[C@H]3O)c(OC)c2)cc(OC)c1O[C@@H]1O[C@H](CO)[C@@H](O)[C@H](O)[C@H]1O [Eleutheroside D]
Result: 0.0455

----------
# Test system: CLZ3 (HCA2 human fibroblast dual HR-NHEJ reporter)
# assay comment: HR repair efficiency (tdTomato+ cells) relative to control (log10 fold); higher = more homologous recombination
# experimental setup: 5 µM; doxycycline 0.5 ug/mL
readout name: HR repair efficiency (log10)
Keep the answer to the number alone.

Recorded HR repair efficiency (log10), per entry:
{"columns": ["compound", "HR repair efficiency (log10)"],
 "data": [
  ["C=C[C@H]1[C@H](O[C@@H]2O[C@H](CO)[C@@H](O)[C@H](O)[C@H]2O)OC=C2C(=O)OCC[C@H]21 [Sweroside]", 0.0254],
  ["CCN1C[C@]2(COC)[C@H](O)C[C@H](OC)[C@@]34[C@@H]5C[C@@]6(O)[C@H](OC(=O)c7ccccc7)[C@@H]5[C@@](OC(C)=O)([C@@H]([C@H](OC)[C@H]23)[C@@H]14)[C@@H](O)[C@@H]6OC", 0.0783]
]}

Next:
Query: Give HR repair efficiency (log10) for the following compound: `O=c1ccc2cc(O[C@@H]3O[C@H](CO)[C@@H](O)[C@H](O)[C@H]3O)c(O)cc2o1`
Result: 0.148

----------
HR repair efficiency (log10) listing for selected compounds.
# System: CLZ3 (HCA2 human fibroblast dual HR-NHEJ reporter)
# assay comment: HR repair efficiency (tdTomato+ cells) relative to control (log10 fold); higher = more homologous recombination
# experimental setup: 5 µM; doxycycline 0.5 ug/mL
Structures can show the parent of a compound that is named as a salt.
Provide a numeric answer; units are not to be included.

{"columns": ["compound", "measured on", "HR repair efficiency (log10)"],
 "data": [
  ["C=C(C)C1CC=C(C=O)CC1 (stereo not given)", "CLZ3 (HCA2 human fibroblast dual HR-NHEJ reporter)", -0.104],
  ["C[C@@H]1CC[C@H]2[C@@H](C)C(=O)O[C@@H]3O[C@@]4(C)CC[C@@H]1[C@]32OO4", "CLZ3 (HCA2 human fibroblast dual HR-NHEJ reporter)", 0.328],
  ["C/C1=C\\C2C(CCC3(CO3)C(O)C3C(O)C(C)CC3(O)C1=O)C2(C)C (stereo not given)", "CLZ3 (HCA2 human fibroblast dual HR-NHEJ reporter)", 0.0115],
  ["COC1=C[C@@H]2[C@@H]3Cc4ccc(OC)c(O)c4[C@]2(CCN3C)CC1=O", "CLZ3 (HCA2 human fibroblast dual HR-NHEJ reporter)", 0.274],
  ["CCN1C[C@]2(COC)CC[C@H](OC)[C@]34C1[C@H](C[C@H]23)[C@@]1(O)C[C@H](OC)[C@H]2C[C@@H]4[C@@H]1[C@H]2O", "CLZ3 (HCA2 human fibroblast dual HR-NHEJ reporter)", 0.0585],
  ["O=C(O)[C@@H]1[C@H](C(=O)O)[C@H]2CC[C@@H]1O2 [Endothall Disodium Salt]", "CLZ3 (HCA2 human fibroblast dual HR-NHEJ reporter)", 0.143],
  ["O=C(/C=C/c1ccccc1)OC[C@H]1O[C@@H](O[C@@H]2OC=C[C@H]3[C@H](O)[C@@H]4O[C@]4(CO)[C@@H]23)[C@H](O)[C@@H](O)[C@@H]1O [Picroside I]", "CLZ3 (HCA2 human fibroblast dual HR-NHEJ reporter)", -0.0261],
  ["C[C@@]12C[C@@H](c3ccoc3)OC(=O)[C@@H]1CC[C@]1(C)[C@H]2[C@@H]2C=C[C@@]1(O)C(=O)O2", "CLZ3 (HCA2 human fibroblast dual HR-NHEJ reporter)", -0.0272]
]}

Query: Quote HR repair efficiency (log10) reported for `COC[C@]12CN(C)[C@@H]3[C@@H]4[C@H](OC)[C@H]1[C@@]3([C@@H](OC)C[C@H]2O)[C@@H]1C[C@@]2(O)[C@H](OC(=O)c3ccccc3)[C@@H]1[C@]4(OC(C)=O)[C@@H](O)[C@@H]2OC` please.
Result: 0.0192

Query: Give HR repair efficiency (log10) for `C=C1[C@H]2C[C@@]3([C@@H]1O)[C@@H](CC2=O)[C@]12[C@@H]4C[C@H]3[C@H]1N(CC)C[C@]4(C)CC[C@@H]2O`
Result: 0.115

----------
# Tested on: CLZ3 (HCA2 human fibroblast dual HR-NHEJ reporter)
# assay comment: NHEJ repair efficiency (GFP+ cells) relative to control (log10 fold); higher = more non-homologous end joining
# experimental setup: 5 µM; doxycycline 0.5 ug/mL
Counter-ions that a name gives are not always drawn.
readout name: NHEJ repair efficiency (log10)
Reply briefly: the number, and no unit.

As a guide, the following entries are already answered.
{"columns": ["molecule", "measured on", "NHEJ repair efficiency (log10)"],
 "data": [
  ["O=C(/C=C/c1ccccc1)OC[C@H]1O[C@@H](O[C@@H]2OC=C[C@H]3[C@H](O)[C@@H]4O[C@]4(CO)[C@@H]23)[C@H](O)[C@@H](O)[C@@H]1O [Picroside I]", "CLZ3 (HCA2 human fibroblast dual HR-NHEJ reporter)", -0.0564],
  ["CCN1CC2(COC)CCC(O)C34C5CC6C(OC)CC(O)(C5C6O)C(C(OC)C23)C14 (centres undefined)", "CLZ3 (HCA2 human fibroblast dual HR-NHEJ reporter)", -0.0469],
  ["N#C/C=C1/C=C[C@@H](O)[C@H](O)[C@H]1O[C@@H]1O[C@H](CO)[C@@H](O)[C@H](O)[C@H]1O [Lithospermoside]", "CLZ3 (HCA2 human fibroblast dual HR-NHEJ reporter)", 0.0837],
  ["C=CCSSCC=C", "CLZ3 (HCA2 human fibroblast dual HR-NHEJ reporter)", -0.0895],
  ["CN1[C@@H]2C[C@@H](OC(=O)[C@H](CO)c3ccccc3)C[C@H]1[C@@H]1O[C@@H]12 [Scopolamine Hydrobromide]", "CLZ3 (HCA2 human fibroblast dual HR-NHEJ reporter)", 0.039]
]}

Query: Dear colleague, please send me the reported NHEJ repair efficiency (log10) for `C[C@H]1CC[C@H]2[C@H](C)[C@@H]3CC[C@@H]4[C@@H](C[C@H]5[C@H]4C[C@@H](O)[C@H]4C[C@@H](O)CC[C@@]45C)[C@@H]3CN2C1` when you can.
Result: 0.00613

Query: Identify measured NHEJ repair efficiency (log10) corresponding to `CC[C@H]1CN2CC[C@]3(C(=O)Nc4ccccc43)[C@@H]2C[C@@H]1/C(=C\OC)C(=O)OC`
Result: -0.15

Query: In one line, give reported NHEJ repair efficiency (log10) of the entry `CC[C@H]1CN2CC[C@@]3(C(=O)Nc4ccccc43)[C@@H]2C[C@@H]1/C(=C\OC)C(=O)OC` .
Result: -0.108

Query: Give reported NHEJ repair efficiency (log10) value for `COC1=C[C@@H]2[C@@H]3Cc4ccc(OC)c(O)c4[C@]2(CCN3C)CC1=O`
Result: 0.154

----------
# System: CLZ3 (HCA2 human fibroblast dual HR-NHEJ reporter)
# assay comment: NHEJ repair efficiency (GFP+ cells) relative to control (log10 fold); higher = more non-homologous end joining
# experimental setup: 5 µM; doxycycline 0.5 ug/mL
Counter-ions that a name gives are not always drawn.
readout name: NHEJ repair efficiency (log10)
Respond numerically, and do not add a unit to the figure.

Would you please look over these solved cases?
{"columns": ["compound", "measured on", "NHEJ repair efficiency (log10)"],
 "data": [
  ["C[C@H]1CC[C@@H]2N(C1)C[C@H]1[C@@H]3C[C@H]4[C@@H](C[C@H](O)[C@H]5C[C@@H](O)CC[C@@]54C)[C@@H]3CC[C@@H]1[C@]2(C)O", "CLZ3 (HCA2 human fibroblast dual HR-NHEJ reporter)", -0.07],
  ["CCN1C[C@]2(COC)CC[C@H](OC)[C@]34C1[C@H]([C@H](OC)[C@H]23)[C@@]1(OC(C)=O)C[C@H](OC)[C@@]2(O)C[C@@H]4[C@@H]1[C@H]2OC(=O)c1ccc(OC)cc1", "CLZ3 (HCA2 human fibroblast dual HR-NHEJ reporter)", 0.00451],
  ["CC(=O)[C@]1(O)CC[C@@]2(O)[C@]1(C)[C@H](OC(=O)/C=C(\\C)C(C)C)C[C@@H]1[C@@]3(C)CC[C@H](O)CC3=CC[C@]12O", "CLZ3 (HCA2 human fibroblast dual HR-NHEJ reporter)", -0.0815],
  ["O=c1ccc2cc3ccoc3c(O)c2o1", "CLZ3 (HCA2 human fibroblast dual HR-NHEJ reporter)", 0.0631],
  ["O=C(O)[C@@H]1[C@H](C(=O)O)[C@H]2CC[C@@H]1O2 [Endothall Disodium Salt]", "CLZ3 (HCA2 human fibroblast dual HR-NHEJ reporter)", 0.13]
]}

Query: Name the recorded NHEJ repair efficiency (log10) of the compound listed here: COc1c(C)c(O)cc2[o+]c(-c3ccccc3)ccc12.[O-][Cl+3]([O-])([O-])[O-] [Dracorhodin perochlorate]
Result: 0.134

Query: Determine its reported NHEJ repair efficiency (log10): c1c2c(cc3c1OCO3)-c1cc3ccc4c(c3c[n+]1CC2)OCO4 [Coptisine Chloride]
Result: -0.16
